System: D(2) dopamine receptor (Homo sapiens, UniProt P14416) | Read-out: Ki
Sequence (P14416 whole entry): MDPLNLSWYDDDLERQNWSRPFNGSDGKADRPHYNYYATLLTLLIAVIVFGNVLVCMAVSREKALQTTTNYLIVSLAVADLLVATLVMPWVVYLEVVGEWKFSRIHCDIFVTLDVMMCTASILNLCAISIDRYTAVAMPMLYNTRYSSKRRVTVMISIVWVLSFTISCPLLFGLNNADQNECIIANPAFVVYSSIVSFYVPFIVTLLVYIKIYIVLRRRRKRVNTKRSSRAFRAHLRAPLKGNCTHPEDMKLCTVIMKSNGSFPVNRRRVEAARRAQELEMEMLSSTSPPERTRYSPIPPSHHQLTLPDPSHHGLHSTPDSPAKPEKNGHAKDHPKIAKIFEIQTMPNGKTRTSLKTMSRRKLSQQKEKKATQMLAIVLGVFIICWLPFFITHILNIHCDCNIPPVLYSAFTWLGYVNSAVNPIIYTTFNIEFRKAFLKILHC
Field: numeric (nM). Do not append units.

Before answering, review these 2 worked examples.
1. COc1nc2sc(C(=O)NCCCCCN3CCN(c4cccc(Cl)c4Cl)CC3)c(N)c2c(C)c1Cl; 15.5
2. COc1ccccc1N1CCN(CCCCCNC(=O)c2sc3nc(C)cc(C)c3c2N)CC1; 9.1

Using the record for `CC(C)(C)OC(=O)NCCCCCCN1CCC(O)(c2ccc(Cl)cc2)CC1` , report its Ki.
902

Which Ki is reported for this compound? `CC(C)(C)OC(=O)NCCCCN1CCC(O)(c2ccc(Cl)cc2)CC1`
2110

Which measured Ki value corresponds to `CC(C)(C)OC(=O)NCCCCCN1CCN(c2cccc(Cl)c2Cl)CC1` ?
42.6

* * *

Overview of recorded pKi for various compounds
# tested.on: D(2) dopamine receptor (Homo sapiens, UniProt P14416)
The value called pKi is obtained by taking minus log10 of the concentration in mol/L.

Solved entries:
1. COc1ccccc1N1CCN(CCCNC(=O)OC(C)(C)C)CC1; 7.79
2. COc1ccccc1N1CCN(CCCCCNC(=O)OC(C)(C)C)CC1; 7.92
3. CC(C)(C)OC(=O)NCCCCCN1CCC(O)(c2ccc(Cl)cc2)CC1; 5.69

Test system D(2) dopamine receptor (Homo sapiens, UniProt P14416); read-out pKi; what value for `Cc1cc(C)c2c(N)c(C(=O)NCCCCCN3CCC(O)(c4ccc(Cl)cc4)CC3)sc2n1` ?
5.70

Param readout= pKi; system= D(2) dopamine receptor (Homo sapiens, UniProt P14416); entry= `COc1ccccc1N1CCN(CCCCCCNC(=O)OC(C)(C)C)CC1` ; returns value.
7.13

Request body: readout pKi, system D(2) dopamine receptor (Homo sapiens, UniProt P14416), query `COc1ccccc1N1CCN(CCNC(=O)c2sc3nc(OC)c(Cl)c(C)c3c2N)CC1` . Return the value.
7.32

// lookup pKi | system=D(2) dopamine receptor (Homo sapiens, UniProt P14416) | key= `COc1ccccc1N1CCN(CCCCNC(=O)OC(C)(C)C)CC1`
7.72

Report pKi for `OC1(c2ccc(Cl)cc2)CCNCC1` tested on D(2) dopamine receptor (Homo sapiens, UniProt P14416).
5.04

Short answer please: pKi, D(2) dopamine receptor (Homo sapiens, UniProt P14416), entry `Cc1cc(C)c2c(N)c(C(=O)NCCCCN3CCC(O)(c4ccc(Cl)cc4)CC3)sc2n1`
5.65

What reported pKi corresponds to `Clc1cccc(N2CCNCC2)c1Cl` on D(2) dopamine receptor (Homo sapiens, UniProt P14416)?
5.94

Give pKi (D(2) dopamine receptor (Homo sapiens, UniProt P14416)) of the following compound: `COc1ccccc1N1CCNCC1`
5.39

* * *

# tested.on: D(2) dopamine receptor (Homo sapiens)
# test: Competitive antagonist activity at human D2L receptor expressed in FlpIn CHO cells assessed as inhibition of dopamine-induced ERK1/2 phosphorylation treated for 30 mins prior to dopamine stimulation for 5 mins by AlphaScreen assay
# Type: cell-based
test.readout: Kb

Consider the reported Kb for these compounds:
1. COc1ccccc1N1CCN(CCCNC(=O)c2sc3nc(OC)c(Cl)c(C)c3c2N)CC1; 741 nM
2. COc1ccccc1N1CCN(CCCCNC(=O)c2sc3nc(OC)c(Cl)c(C)c3c2N)CC1; 490 nM
3. COc1ccccc1N1CCNCC1; 479 nM

Endpoint output: Kb of `COc1ccccc1N1CCN(CCNC(=O)c2sc3nc(OC)c(Cl)c(C)c3c2N)CC1` . Value?
355 nM

* * *

# tested.on: UniProtKB P14416
# test: Antagonist activity at human D2L receptor expressed in FlpIn CHO cells assessed as inhibition of dopamine-induced ERK1/2 phosphorylation treated for 30 mins prior to dopamine stimulation for 5 mins by AlphaScreen assay
# Assay type: cell-based
test.readout: pIC50
pIC50 (log units): -log10 of the concentration in mol/L.

Fill in the recorded pIC50 for this compound, with UniProtKB P14416 as test system: `COc1ccccc1N1CCN(CCCCCCNC(=O)OC(C)(C)C)CC1`
8.40

* * *

# tested.on: D(2) dopamine receptor (Homo sapiens, UniProt P14416)
# test: Partial agonist activity at human D2L receptor expressed in FlpIn CHO cells assessed as induction of ERK1/2 phosphorylation by AlphaScreen assay relative to dopamine
# Format: cell-based
Entries annotated with measured Emax
Write it as a number; the unit % goes unstated.

Some solved cases for reference:
1. COc1ccccc1N1CCN(CCCCNC(=O)OC(C)(C)C)CC1; 13
2. COc1ccccc1N1CCN(CCCCCNC(=O)OC(C)(C)C)CC1; 19
3. COc1ccccc1N1CCN(CCCNC(=O)OC(C)(C)C)CC1; 31
4. COc1ccccc1N1CCN(CCCCCNC(=O)c2sc3nc(OC)c(Cl)c(C)c3c2N)CC1; 17

Switching to the query record.
Would you mind telling me what Emax value was observed for `COc1ccccc1N1CCN(CCCCCCNC(=O)c2sc3nc(OC)c(Cl)c(C)c3c2N)CC1` ?
14

Numbers sourced from ChEMBL document CHEMBL3297649.
